These measurements were taken from PubChem BioAssay AID561.

Biological target: Nuclear receptor ROR-alpha (Homo sapiens) (UniProt P35398)
Sequence (P35398 whole entry, looked up): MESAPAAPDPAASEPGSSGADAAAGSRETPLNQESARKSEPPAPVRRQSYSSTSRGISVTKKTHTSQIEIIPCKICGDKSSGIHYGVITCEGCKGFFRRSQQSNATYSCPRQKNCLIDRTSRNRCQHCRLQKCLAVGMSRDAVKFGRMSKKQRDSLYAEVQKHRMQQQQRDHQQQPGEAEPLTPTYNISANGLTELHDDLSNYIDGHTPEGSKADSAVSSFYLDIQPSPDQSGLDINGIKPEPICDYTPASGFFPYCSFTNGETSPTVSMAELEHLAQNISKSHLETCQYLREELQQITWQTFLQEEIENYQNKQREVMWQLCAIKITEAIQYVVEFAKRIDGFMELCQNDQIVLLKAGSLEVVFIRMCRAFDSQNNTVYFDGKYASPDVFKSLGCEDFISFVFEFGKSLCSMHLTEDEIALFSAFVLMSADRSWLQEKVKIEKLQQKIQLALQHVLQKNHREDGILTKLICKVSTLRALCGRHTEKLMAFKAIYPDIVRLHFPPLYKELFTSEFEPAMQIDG
Assay: suppression of basal RORA-driven reporter transcription – cell-based, luminescence, primary screen (AID 561);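 note: 0% = RORA-transfected cells with DMSO and 100% = mock-transfected cells lacking RORA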
Conditions: CHO-K1 Gal4-RORA LBD luciferase reporter, at 10 µM, hits give high values
About 280 (0.43%) of roughly 65,000 compounds were called active. The full list was thinned out, with actives kept by preference.
Kind request: treat -10% as inclusive, so inhibition at -10% or higher is true, anything lower is false.

Check out these entries, answers already filled in.
# COMPOUND, LABEL
records = [
    ("COc1ccc(CN(C(=O)c2cccs2)c2nccs2)cc1OC", "true"),
    ("O=C(Nc1cccnc1)c1noc2c1CCCCC2", "true"),
    ("Clc1ccc(C2CC(c3cccs3)n3ncnc3N2)cc1Cl (centres undefined)", "true"),
    ("Cc1ccc(Oc2nc3ccccc3n3c(C)nnc23)cc1", "true"),
    ("c1ccc(-n2ncc3c2ncn2c(CSc4nc5ccccc5s4)nnc32)cc1", "true"),
    ("COC(=O)Cc1cc(=O)n(-c2nc3ccccc3s2)[nH]1", "true"),
    ("O=C(NCc1ccccc1)C1C(=O)N(Cc2ccccc2)C(=O)C1C1(O)CCCC1 (centres undefined)", "true"),
    ("COc1ccccc1NC(=O)c1ccc(C)s1", "false"),
]

## Input Is reported inhibition greater than or equal to -10% here: CCC(=O)NC(=Nc1nc2ccccc2s1)NC(=O)CC
## Output false

## Input Can you handle Cc1nc2nc(COc3ccccc3)[nH]n2c(=O)c1C next?
## Output true

## Input Another compound to check: Cc1ccc(-n2ncc3c2ncn2nc(-c4ccco4)nc32)c(C)c1
## Output false

----------
Please provide measured inhibition for the entries that follow.
Target: Nuclear receptor ROR-alpha (Homo sapiens)
Test: suppression of basal RORA-driven reporter transcription – cell-based, luminescence, primary screen (AID 561);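 note: 0% = RORA-transfected cells with DMSO and 100% = mock-transfected cells lacking RORA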
Settings: CHO-K1 Gal4-RORA LBD luciferase reporter, at 10 µM, hits give high values
The campaign covered roughly 65,000 compounds. About 280 (0.43%) were called active. This excerpt belongs to a sample that is enriched for actives.
One number for each entry, in %.

Below is a list of compounds. For each, state its recorded inhibition.
1. COc1ccc(-n2ncc3c(N4CCCc5ccccc54)ncnc32)cc1
2. O=C(Nc1ccc(Cl)cc1)c1ccsn1
3. CC(C)OCCCNc1ncnc2c1[nH]c1ccc(F)cc12
4. COc1ccc(-c2cc(C(F)(F)F)nc(S(C)(=O)=O)n2)cc1OC

## Output
1: -50.2; 2: -59.5; 3: 75.5; 4: 60.9

Please give inhibition, item by item, for the list that follows.
1. CCCOC(=O)c1[nH]c2c(c1C)C(=O)CC(c1cc(OC)c(OC)c(OC)c1)C2 (stereo unspecified)
2. Cc1ccc(NC(=O)NCC(c2cccnc2)N2CCOCC2)cc1 (stereo unspecified)

## Output
61.1
20.8

State recorded inhibition for all listed compounds.
1. COc1ccc(Cl)cc1S(=O)(=O)Nc1cccc(C(=O)O)c1
2. Fc1ccc2[nH]c3c(N4CCSCC4)ncnc3c2c1
3. Fc1ccc2[nH]c3c(N4CCN(Cc5ccc6c(c5)OCO6)CC4)ncnc3c2c1
4. O=C(OC1CCOC1=O)c1ccc(-c2nc3ccccc3s2)s1 (stereo unspecified)
5. O=C(CN1C(=O)c2ccccc2S1(=O)=O)N1CCc2ccccc21

## Output
1. 2.9
2. 80.8
3. 86.3
4. 60.6
5. 37.4
